# Tested System: PRMT5/MEP50 complex (Homo sapiens)
# Test Details: Inhibition of recombinant human fetal brain FLAG-tagged PRMT5/full length human testis 6His-tagged MEP50 expressed in baculovirus infected insect Sf9 cells using human histone H4 (1 to 15 residues) as substrate preincubated for 30 mins followed by [3H]-SAM addition
This section presents molecules with their documented IC50 values.

Below: 3 molecules and their reported IC50.
Cn1ccc2ccc(-c3cccc(OCC(O)CN4CCc5ccccc5C4)c3)nc21 (centres undefined) | < 100 nM
OC(COc1cccc(-c2csc3ccccc23)c1)CN1CCc2ccccc2C1 (centres undefined) | 101 to 1000 nM
OC(COc1cccc(CNC2CCCC2)c1)CN1CCc2ccccc2C1 (centres undefined) | 101 to 1000 nM

input: Give the measured IC50 of N#Cc1ccc(-c2cccc(OCC(O)CN3CCc4ccccc4C3)c2)cc1 (centres undefined) .
output: 101 to 1000 nM

* * *

# Tested System: PRMT5/MEP50 complex (Homo sapiens, UniProt O14744)
# Sequence (O14744 whole entry, the tested form may be a part): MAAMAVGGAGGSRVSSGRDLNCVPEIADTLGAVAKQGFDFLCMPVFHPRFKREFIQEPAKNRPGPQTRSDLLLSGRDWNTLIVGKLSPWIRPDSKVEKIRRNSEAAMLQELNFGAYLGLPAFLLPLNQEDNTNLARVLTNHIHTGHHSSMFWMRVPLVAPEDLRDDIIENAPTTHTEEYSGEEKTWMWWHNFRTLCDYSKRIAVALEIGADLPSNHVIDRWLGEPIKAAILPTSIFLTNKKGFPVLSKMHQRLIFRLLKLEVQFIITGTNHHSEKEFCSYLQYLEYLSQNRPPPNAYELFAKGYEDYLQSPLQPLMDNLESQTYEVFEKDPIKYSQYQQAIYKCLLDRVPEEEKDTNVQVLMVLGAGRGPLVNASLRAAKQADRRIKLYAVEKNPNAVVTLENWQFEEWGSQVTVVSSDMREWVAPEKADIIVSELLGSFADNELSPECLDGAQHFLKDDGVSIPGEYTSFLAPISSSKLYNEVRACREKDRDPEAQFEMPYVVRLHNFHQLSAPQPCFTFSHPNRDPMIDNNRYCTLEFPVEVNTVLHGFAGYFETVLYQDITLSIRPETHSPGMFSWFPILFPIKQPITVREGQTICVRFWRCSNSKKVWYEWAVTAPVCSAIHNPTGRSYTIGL
# Sequence (Q9BQA1 whole entry, further chain, the tested form may be a part): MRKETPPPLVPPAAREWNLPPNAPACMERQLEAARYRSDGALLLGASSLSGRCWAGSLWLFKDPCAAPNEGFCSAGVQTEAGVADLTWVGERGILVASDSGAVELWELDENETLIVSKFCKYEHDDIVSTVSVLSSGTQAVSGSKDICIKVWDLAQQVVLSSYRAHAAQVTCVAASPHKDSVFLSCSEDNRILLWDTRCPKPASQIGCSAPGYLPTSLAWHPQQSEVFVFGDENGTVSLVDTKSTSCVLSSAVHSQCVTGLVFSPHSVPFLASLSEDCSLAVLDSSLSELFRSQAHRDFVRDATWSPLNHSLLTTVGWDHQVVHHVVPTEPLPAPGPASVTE
# Test Details: Inhibition of recombinant human fetal brain FLAG-tagged PRMT5/full length human testis 6His-tagged MEP50 expressed in baculovirus infected insect Sf9 cells using human histone H4 (1 to 15 residues) as substrate preincubated for 30 mins followed by [3H]-SAM addition
pIC50: −log10 of the molar value.
Quantity Kind: pIC50

CCN(c1cccc(C(=O)NCC(O)CN2CCc3ccccc3C2)c1)C1CCOCC1 (stereo not drawn) | 6.00 to 7.00
CN1CC(c2ccccc2OCC(=O)NCC(O)CN2CCc3ccccc3C2)C1 (stereo not drawn) | 5.00 to 6.00
CN1CCC(c2ccccc2OCC(=O)NCC(O)CN2CCc3ccccc3C2)C1 (stereo not drawn) | 5.00 to 6.00

input: Give the measured pIC50 of O=C(COc1cccc2cccnc12)NC[C@H](O)CN1CCc2ccccc2C1 .
output: 6.00 to 7.00

input: Try the molecule CC1Cc2ccccc2CN1CC(O)COc1cccc(CNC2CCCC2)c1 (stereo not drawn)
output: < 4.40

input: Try the molecule O=C(c1ccc(Cn2nccc2-c2ccc(OCC(O)CN3CCc4ccccc4C3)cc2)cc1)N1CCCC1 (stereo not drawn)
output: 6.00 to 7.00

* * *

This section presents compounds with their documented pIC50 values.
# Tested System: PRMT5/MEP50 complex (Homo sapiens)
# Test Details: Inhibition of recombinant human fetal brain FLAG-tagged PRMT5/full length human testis 6His-tagged MEP50 expressed in baculovirus infected insect Sf9 cells using human histone H4 (1 to 15 residues) as substrate preincubated for 30 mins followed by [3H]-SAM addition
pIC50: −log10 of the molar value.

Below: 5 compounds and their reported pIC50.
CC(C)(C)OC(=O)Nc1ccccc1OCC(=O)NCC(O)CN1CCc2ccccc2C1 (centres undefined) | 5.00 to 6.00
CN1CCCC1c1cccc(C(=O)NCC(O)CN2CCc3ccccc3C2)c1 (centres undefined) | > 7.00
CC(C(O)COc1cccc(CNC2CCCC2)c1)N1CCc2ccccc2C1 (centres undefined) | 5.00 to 6.00
OC(COc1cccc(-c2ccc(C(F)(F)F)cc2C(F)(F)F)c1)CN1CCc2ccccc2C1 (centres undefined) | 6.00 to 7.00
NS(=O)(=O)c1cccc(C(=O)NCC(O)CN2CCc3ccccc3C2)c1 (centres undefined) | 6.00 to 7.00

input: Give the measured pIC50 of O=C(COc1ccccc1-c1cc[nH]n1)NCC(O)CN1Cc2ccccc2C1 (centres undefined) .
output: 6.00 to 7.00

input: Try the compound NC(=O)c1ccccc1OCC(=O)NCC(O)CN1CCc2ccccc2C1 (centres undefined)
output: 6.00 to 7.00

input: Try the compound CC(=O)Nc1cccc(C(=O)NCC(O)CN2CCc3ccccc3C2)c1 (centres undefined)
output: 6.00 to 7.00

* * *

# Tested System: PRMT5/MEP50 complex (Homo sapiens, UniProt O14744)
# Test Details: Inhibition of recombinant human fetal brain FLAG-tagged PRMT5/full length human testis 6His-tagged MEP50 expressed in baculovirus infected insect Sf9 cells using human histone H4 (1 to 15 residues) as substrate preincubated for 30 mins followed by [3H]-SAM addition
pIC50: −log10 of the molar value.
Quantity Kind: pIC50

Below: 3 compounds and their reported pIC50.
Cn1cnc2ccc(-c3cccc(OCC(O)CN4CCc5ccccc5C4COc4ccccc4)c3)cc21 (stereo unspecified) | < 4.40
O=C(COC1CCCCC1)NCC(O)CN1CCc2ccccc2C1 (stereo unspecified) | 6.00 to 7.00
O=C(NCC(O)CN1CCc2ccccc2C1)c1cccc(C(=O)N2CCOCC2)c1 (stereo unspecified) | 5.00 to 6.00

input: Find the measured pIC50: item Cn1cnc2ccc(-c3cccc(OCC(O)CN4Cc5ccccc5C4)c3)cc21 (stereo unspecified) , target or system PRMT5/MEP50 complex (Homo sapiens, UniProt O14744).
output: 5.00 to 6.00

input: Try the compound OC(COc1cccc(-c2cccc(C(F)(F)F)c2)c1)CN1CCc2ccccc2C1 (stereo unspecified)
output: 5.00 to 6.00

input: Try the compound OC(CNc1cc(-c2ncc3ccn(C4CNC4)c3n2)ccn1)CN1CCc2ccccc2C1 (stereo unspecified)
output: > 7.00

input: Try the compound NC(=O)c1ccc(C(=O)NCC(O)CN2CCc3ccccc3C2)cc1 (stereo unspecified)
output: 6.00 to 7.00

input: Try the compound O=C1CN(c2cncc(N3CCOCC3)c2)CCN1CC(O)CN1CCc2ccccc2C1 (stereo unspecified)
output: > 7.00

input: Try the compound CN(C)c1ccccc1OCC(=O)NCC(O)CN1CCc2ccccc2C1 (stereo unspecified)
output: > 7.00

* * *

# Tested System: PRMT5/MEP50 complex (Homo sapiens)
# Test Details: Inhibition of recombinant human fetal brain FLAG-tagged PRMT5/full length human testis 6His-tagged MEP50 expressed in baculovirus infected insect Sf9 cells using human histone H4 (1 to 15 residues) as substrate preincubated for 30 mins followed by [3H]-SAM addition
pIC50: −log10 of the molar value.
This section presents compounds with their documented pIC50 values.

input: Give the measured pIC50 of COc1ccc(-c2cccc(OCC(O)CN3CCc4ccccc4C3)c2)cc1 (centres undefined) .
output: 6.00 to 7.00

input: Try the compound CN1CCN(CC(O)CN2CCc3ccccc3C2)C(=O)C1 (centres undefined)
output: < 4.30

input: Try the compound NC(=O)c1cccc(OCC(=O)NCC(O)CN2CCc3ccccc3C2)c1 (centres undefined)
output: 6.00 to 7.00

input: Try the compound O=C(NCC(O)CN1CCc2ccccc2C1)c1cccc(OC2CCOCC2)c1 (centres undefined)
output: 6.00 to 7.00

* * *

# Tested System: PRMT5/MEP50 complex (Homo sapiens, UniProt O14744)
# Test Details: Inhibition of recombinant human fetal brain FLAG-tagged PRMT5/full length human testis 6His-tagged MEP50 expressed in baculovirus infected insect Sf9 cells using human histone H4 (1 to 15 residues) as substrate preincubated for 30 mins followed by [3H]-SAM addition
Quantity Kind: IC50

Below: 2 compounds and their reported IC50.
Cn1cnc2cc(OCC(=O)NCC(O)CN3CCc4ccccc4C3)ccc21 (configuration not stated) | 0.101 to 1 µM
CC(C)(Oc1ccccc1)C(=O)NCC(O)CN1CCc2ccccc2C1 (configuration not stated) | 0.101 to 1 µM

input: Give the measured IC50 of CC(OCC(O)CN1CCc2ccccc2C1)c1cccnc1 (configuration not stated) .
output: 10 to 40 µM

input: Try the compound Cn1ccc2cnc(-c3cccc(OCC(O)CN4CCc5ccccc5C4)c3)nc21 (configuration not stated)
output: < 0.1 µM

input: Try the compound O=C(COc1ccc(F)cc1)NCC(O)CN1CCc2ccccc2C1 (configuration not stated)
output: 1 to 10 µM

input: Try the compound CS(=O)(=O)Nc1ccccc1C(=O)NCC(O)CN1CCc2ccccc2C1 (configuration not stated)
output: 1 to 10 µM

input: Try the compound O=C1CN(c2cccc3cccnc23)CCN1CC(O)CN1CCc2ccccc2C1 (configuration not stated)
output: < 0.1 µM

* * *

# Tested System: PRMT5/MEP50 complex (Homo sapiens)
# Test Details: Inhibition of recombinant human fetal brain FLAG-tagged PRMT5/full length human testis 6His-tagged MEP50 expressed in baculovirus infected insect Sf9 cells using human histone H4 (1 to 15 residues) as substrate preincubated for 30 mins followed by [3H]-SAM addition
Quantity Kind: IC50

Cc1cc(OCC(O)CN2CCc3ccccc3C2)c(C)cc1CN1CCOCC1 (centres undefined) | 101 to 1000 nM

input: Give the measured IC50 of COc1ccc2cccc(OCC(=O)NC[C@H](O)CN3CCc4ccccc4C3)c2n1 .
output: 101 to 1000 nM

input: Try the molecule NC(=O)c1ccc(OCC(=O)NCC(O)CN2CCc3ccccc3C2)cc1 (centres undefined)
output: 1000 to 10000 nM

input: Try the molecule OC(COc1cccc(-c2cccc(F)c2F)c1)CN1CCc2ccccc2C1 (centres undefined)
output: 101 to 1000 nM

input: Try the molecule CN1CCN(Cc2cccc(C(=O)NCC(O)CN3CCc4ccccc4C3)c2)CC1 (centres undefined)
output: < 100 nM
